Property: pIC50; scope: individual binders
target: HLA A0201 (human); assay: 125I-probe competition, purified HLA
pIC50: −log10 of the molar value.
measured.endpoint: pIC50

1) SLQDIEITCV (modifications not checked) [HPV18.E6.24] = 6.82
2) KLLEKLLCI (modifications not checked) [HPV31.E1.272] = 7.72
3) TLYAHIQCL (modifications not checked) [HPV45.E1.252] = 7.47
4) FIYIPLFVI (modifications not checked) [HPV31.E5.66] = 7.59
5) KLLSKLLCV (modifications not checked) [HPV16.E1.292] = 7.51
6) FVYIPLFLI (modifications not checked) [HPV16.E5.66] = 6.69
7) CLYLHIQSL (modifications not checked) [HPV16.E1.259] = 7.14
8) YTNWKFIYL (modifications not checked) [HPV31.E2.131] = 7.16

Reference source: patent US20100272750A1
